Reported IC50 values for the following compounds.
Target: 5α-Reductase of Rat Liver Microsomes (Rattus norvegicus, UniProt P24008)
Assay: biochemical

// known answers, use as guide
In [3]: df
Out[3]:
                                 mol  recorded_metric  observed_result
0  CCCCC/C=C\C/C=C\CCCCCCCCCCCC(=O)O             IC50           118 µM
1              CCCCCCCCCCCCCCCCCCC#N             IC50         > 200 µM
2      CCCCCCCC/C=C\CCCCCCCCCCC(=O)O             IC50           154 µM
3     CCCCCCCC/C=C\CCCCCCCCCCCC(=O)O             IC50         > 200 µM
4    CCCCCCCC/C=C\CCCCCCCCCCCCC(=O)O             IC50         > 200 µM

Please look at the following compound next.
Ask: Name the recorded IC50 for CCCCCC/C=C\CCCCCCCC(=O)O .
Result: 108 µM

---

Biological target: human 5α-reductase isozyme type 2 (Homo sapiens, UniProt P31213)
Construct: expressed in transfected cells; host or cells: Rat-1A cells infected with pMV7 retrovirus; microsomes of these cells
Sequence (P31213 1-254): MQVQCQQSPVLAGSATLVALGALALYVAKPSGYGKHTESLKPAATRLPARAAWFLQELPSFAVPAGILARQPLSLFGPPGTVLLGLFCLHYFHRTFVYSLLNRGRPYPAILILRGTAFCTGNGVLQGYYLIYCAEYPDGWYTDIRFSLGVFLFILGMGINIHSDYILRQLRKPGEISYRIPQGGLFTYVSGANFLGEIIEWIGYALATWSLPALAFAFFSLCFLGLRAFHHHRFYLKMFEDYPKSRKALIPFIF
Assay: 4-[14C]testosterone reduction, human type 2 isozyme
Type: biochemical
Settings: read-out: % Inhibition of 5α-reduction
Excerpt: The cDNAs for the human type 1 and 2 5α-reductases were isolated from human prostate λZAP II™ cDNA libraries using the published sequence of the 5α-reductases, PCR™ and standard library screening techniques (Sambrook et al., 1989). The type 1 and 2 cDNAs correspond to nucleotides 31-870 and 28-829, respectively, of the published sequences for these 5α-reductases (Anderson and Russell, 1990; Anderson et al., 1991). […]
Recorded metric: inhibition at 3 µM

// known answers, use as guide
                                   compound  observed_result
0          CCCCC/C=C\C/C=C\C/C=C\CCCCC(=O)O              48%
1  O=C(O[C@@H]1Cc2c(O)cc(O)cc2O[C@@H]1c1ccc(O)c(O)c1)c1cc(O)c(O)c(O)c1 [ECG, (-)Epicatechin-3-gallate]            < 10%
2  Oc1cc(O)c2c(c1)O[C@H](c1cc(O)c(O)c(O)c1)[C@H](O)C2 [EGC, (-)Epigallocatechin]            < 10%

Please look at the following compound next.
Ask: Request - read-out inhibition at 3 µM | tested on human 5α-reductase isozyme type 2 (Homo sapiens, UniProt P31213) | compound O=C(O[C@@H]1Cc2c(O)cc(O)cc2O[C@@H]1c1cc(O)c(O)c(O)c1)c1cc(O)c(O)c(O)c1 [EGCG, (-)Epigallocatechin-3-gallate]
Result: < 10%

---

Reported inhibition at 40 µM values for the following molecules.
Target: 5α-Reductase of Rat Liver Microsomes (Rattus norvegicus)
Test: biochemical
Details: read-out: % Inhibition of [^3 H]4-MA binding, Table 2, 40 μM

Ask: Name the recorded inhibition at 40 µM for CCCCC/C=C\C/C=C\C/C=C\C/C=C\CCCC(=O)O .
Result: 30%

Ask: Name the recorded inhibition at 40 µM for CCCCCCCC/C=C\CCCCCCCCCCCC(=O)O .
Result: < 10%

Ask: Name the recorded inhibition at 40 µM for CCCCC/C=C\C/C=C\CCCCCCCC(=O)O .
Result: 12%

Ask: Name the recorded inhibition at 40 µM for CCCCCCCC/C=C\CCCCCCCCCCCCCC(=O)O .
Result: < 10%

Ask: Name the recorded inhibition at 40 µM for CCCCCCCCCCC/C=C\CCCCCCC(=O)O .
Result: 52%

---

Target: human 5α-reductase isozyme type 2 (Homo sapiens, UniProt P31213)
Construct: expressed in transfected cells; host or cells: Rat-1A cells infected with pMV7 retrovirus; microsomes of these cells
Experiment: [3H]4-MA binding, human type 2 isozyme expressed in Rat-1A cells
Conditions: read-out: % Inhibition of [^3 H]4-MA binding
Reported inhibition at 10 µM values for the following molecules.
Numbers only here, please. The scale is %.

// known answers, use as guide
In [3]: df
Out[3]:
                                   molecule                             tested_target  unit_symbol  observed_result
0  O=C(O[C@@H]1Cc2c(O)cc(O)cc2O[C@@H]1c1ccc(O)c(O)c1)c1cc(O)c(O)c(O)c1 [ECG, (-)Epicatechin-3-gallate]  human 5α-reductase isozyme type 2 (Homo sapiens, UniProt P31213)            %               45
1          CCCCC/C=C\C/C=C\C/C=C\CCCCC(=O)O  human 5α-reductase isozyme type 2 (Homo sapiens, UniProt P31213)            %               63

Ask: Name the recorded inhibition at 10 µM for O=C(O[C@@H]1Cc2c(O)cc(O)cc2O[C@@H]1c1cc(O)c(O)c(O)c1)c1cc(O)c(O)c(O)c1 [EGCG, (-)Epigallocatechin-3-gallate] .
Result: 55

---

Reported inhibition at 200 µM values for the following compounds.
Molecular target: 5α-Reductase of Rat Liver Microsomes (Rattus norvegicus)
Sequence (P24008 1-259): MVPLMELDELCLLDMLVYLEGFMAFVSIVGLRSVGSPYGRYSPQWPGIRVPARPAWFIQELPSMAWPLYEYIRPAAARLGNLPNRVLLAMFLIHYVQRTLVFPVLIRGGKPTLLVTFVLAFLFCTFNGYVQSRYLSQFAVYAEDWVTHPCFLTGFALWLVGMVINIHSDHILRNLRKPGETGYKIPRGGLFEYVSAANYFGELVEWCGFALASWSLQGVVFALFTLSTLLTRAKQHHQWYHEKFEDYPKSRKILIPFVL
Assay: biochemical
Settings: read-out: % Inhibition of [^3 H]4-MA binding, Table 2, 200 μM
Numbers only here, please. The scale is %.

>>> df
                                   compound                             tested_target  observed_result
0  CCCCC/C=C\C/C=C\C/C=C\CCCCCOC(C)=O [γ-Linolenyl Acetate, γ-linolenyl acetate]  5α-Reductase of Rat Liver Microsomes (Rattus norvegicus)               27
1                  CCCCCC/C=C\CCCCCCCC(=O)O  5α-Reductase of Rat Liver Microsomes (Rattus norvegicus)               73

Please look at the following compound next.
Ask: Request - read-out inhibition at 200 µM | tested on 5α-Reductase of Rat Liver Microsomes (Rattus norvegicus) | compound CCCCCCCC/C=C\CCCCCCCCC(=O)O [10-cis-Nonadecenoic Acid, 10-nonadecenoic acid]
Result: 79

---

Target: human 5α-reductase isozyme type 1 (Homo sapiens)
Construct: expressed in transfected cells; host or cells: Rat-1A cells infected with pMV7 retrovirus; microsomes of these cells
Sequence (P18405 whole entry): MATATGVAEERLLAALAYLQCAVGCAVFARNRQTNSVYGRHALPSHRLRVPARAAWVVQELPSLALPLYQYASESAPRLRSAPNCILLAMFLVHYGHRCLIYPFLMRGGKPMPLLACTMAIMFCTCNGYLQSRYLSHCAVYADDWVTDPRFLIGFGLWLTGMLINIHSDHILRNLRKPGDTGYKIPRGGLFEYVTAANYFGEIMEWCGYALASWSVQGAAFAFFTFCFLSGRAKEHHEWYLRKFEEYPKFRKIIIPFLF
Test: [3H]4-MA binding, human type 1 isozyme expressed in Rat-1A cells
Details: read-out: % Inhibition of [^3 H]4-MA binding
Recorded metric: inhibition at 30 µM

In [3]: df
Out[3]:
                           compound      recorded_metric  observed_result
0  CCCCC/C=C\C/C=C\C/C=C\CCCCC(=O)O  inhibition at 30 µM              79%

Ask: Name the recorded inhibition at 30 µM for Oc1cc(O)c2c(c1)O[C@H](c1cc(O)c(O)c(O)c1)[C@H](O)C2 [EGC, (-)Epigallocatechin] .
Result: < 10%

Ask: Name the recorded inhibition at 30 µM for O=C(O[C@@H]1Cc2c(O)cc(O)cc2O[C@@H]1c1cc(O)c(O)c(O)c1)c1cc(O)c(O)c(O)c1 [EGCG, (-)Epigallocatechin-3-gallate] .
Result: 88%

Ask: Name the recorded inhibition at 30 µM for O=C(O[C@@H]1Cc2c(O)cc(O)cc2O[C@@H]1c1ccc(O)c(O)c1)c1cc(O)c(O)c(O)c1 [ECG, (-)Epicatechin-3-gallate] .
Result: 87%

---

Target: 5α-Reductase of Rat Liver Microsomes (Rattus norvegicus)
Sequence (P24008 1-259): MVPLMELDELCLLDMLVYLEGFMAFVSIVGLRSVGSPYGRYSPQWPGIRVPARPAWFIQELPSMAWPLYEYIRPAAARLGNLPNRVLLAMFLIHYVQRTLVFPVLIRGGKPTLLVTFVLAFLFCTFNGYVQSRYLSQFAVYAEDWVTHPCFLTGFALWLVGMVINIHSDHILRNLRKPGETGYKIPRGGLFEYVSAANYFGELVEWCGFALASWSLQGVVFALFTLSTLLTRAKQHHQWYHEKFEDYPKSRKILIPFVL
Assay: biochemical
Details: apparent Ki values for [^3 H]4-MA, γ-LA 10 μM
Recorded metric: Ki (nM)
Numbers only here, please. The scale is nM.

Ask: Name the recorded Ki for CCCCC/C=C\C/C=C\C/C=C\CCCCC(=O)O .
Result: 40
